- Test system: Pseudomonas aeruginosa
- Measurement Description: Antibacterial activity against Pseudomonas aeruginosa KW 799
- Format: functional
The label condition met is reserved for MIC strictly under 2 µM; condition not met covers values equal to or above it.

| Smiles Structure | Class Label |
| --- | --- |
| COc1ccc(COC(=O)C2=C(CN3CCN(c4cc5c(cc4F)c(=O)c(C(=O)O)cn5C4CC4)CC3)CS[C@@H]3[C@H](NC(=O)Cc4ccccc4)C(=O)N23)cc1 | condition not met |
| O=C(Cc1ccccc1)N[C@@H]1C(=O)N2C(C(=O)OC(c3ccccc3)c3ccccc3)=C(CO)CS[C@H]12 | condition not met |
| O=C(Cc1ccccc1)N[C@@H]1C(=O)N2C(C(=O)O)=C(COC(=O)N3CCN(c4cc5c(cc4F)c(=O)c(C(=O)O)cn5C4CC4)CC3)CS[C@H]12 | condition not met |
| O=C(Cc1ccccc1)N[C@@H]1C(=O)N2C(C(=O)OC(c3ccccc3)c3ccccc3)=C(COC(=O)N3CCN(c4cc5c(cc4F)c(=O)c(C(=O)O)cn5C4CC4)CC3)CS[C@H]12 | condition met |
| O=C(O)c1cn(C2CC2)c2cc(N3CCNCC3)c(F)cc2c1=O | condition met |
| O=C(Cc1ccccc1)N[C@@H]1C(=O)N2C(C(=O)O)=C(CN3CCN(c4cc5c(cc4F)c(=O)c(C(=O)O)cn5C4CC4)CC3)CS[C@H]12 | condition met |
| COc1ccc(COC(=O)C2=C(CCl)CS[C@@H]3[C@H](NC(=O)Cc4ccccc4)C(=O)N23)cc1 | condition not met |
| COc1ccc(COC(=O)C2=C(CI)CS[C@@H]3[C@H](NC(=O)Cc4ccccc4)C(=O)N23)cc1 | condition not met |

###

- System: Micrococcus luteus
- Measurement Description: Antibacterial activity against Micrococcus luteus ATCC 10240
- Type: functional

| Smiles Structure | MIC (µM) |
| --- | --- |
| COc1ccc(COC(=O)C2=C(CN3CCN(c4cc5c(cc4F)c(=O)c(C(=O)O)cn5C4CC4)CC3)CS[C@@H]3[C@H](NC(=O)Cc4ccccc4)C(=O)N23)cc1 | 3.12 |
| O=C(O)c1cn(C2CC2)c2cc(N3CCNCC3)c(F)cc2c1=O | 25 |
| O=C(Cc1ccccc1)N[C@@H]1C(=O)N2C(C(=O)O)=C(CN3CCN(c4cc5c(cc4F)c(=O)c(C(=O)O)cn5C4CC4)CC3)CS[C@H]12 | 0.4 |
| O=C(Cc1ccccc1)N[C@@H]1C(=O)N2C(C(=O)OC(c3ccccc3)c3ccccc3)=C(CO)CS[C@H]12 | 25 |
| COc1ccc(COC(=O)C2=C(CCl)CS[C@@H]3[C@H](NC(=O)Cc4ccccc4)C(=O)N23)cc1 | 50 |
| O=C(Cc1ccccc1)N[C@@H]1C(=O)N2C(C(=O)O)=C(COC(=O)N3CCN(c4cc5c(cc4F)c(=O)c(C(=O)O)cn5C4CC4)CC3)CS[C@H]12 | 0.2 |
| COc1ccc(COC(=O)C2=C(CI)CS[C@@H]3[C@H](NC(=O)Cc4ccccc4)C(=O)N23)cc1 | 100 |
| O=C(Cc1ccccc1)N[C@@H]1C(=O)N2C(C(=O)OC(c3ccccc3)c3ccccc3)=C(COC(=O)N3CCN(c4cc5c(cc4F)c(=O)c(C(=O)O)cn5C4CC4)CC3)CS[C@H]12 | 12.5 |

###

Documented MIC across a set of compounds
- Test system: Escherichia coli
- Measurement Description: Antibacterial activity against Escherichia coli DC2 permeability mutant
- Format: functional

| Smiles Structure | Comparison Sign | MIC (µM) |
| --- | --- | --- |
| O=C(O)c1cn(C2CC2)c2cc(N3CCNCC3)c(F)cc2c1=O | < | 0.1 |
| COc1ccc(COC(=O)C2=C(CI)CS[C@@H]3[C@H](NC(=O)Cc4ccccc4)C(=O)N23)cc1 | = | 200 |
| COc1ccc(COC(=O)C2=C(CN3CCN(c4cc5c(cc4F)c(=O)c(C(=O)O)cn5C4CC4)CC3)CS[C@@H]3[C@H](NC(=O)Cc4ccccc4)C(=O)N23)cc1 | = | 6.25 |
| O=C(Cc1ccccc1)N[C@@H]1C(=O)N2C(C(=O)O)=C(CN3CCN(c4cc5c(cc4F)c(=O)c(C(=O)O)cn5C4CC4)CC3)CS[C@H]12 | = | 0.8 |
| O=C(Cc1ccccc1)N[C@@H]1C(=O)N2C(C(=O)OC(c3ccccc3)c3ccccc3)=C(COC(=O)N3CCN(c4cc5c(cc4F)c(=O)c(C(=O)O)cn5C4CC4)CC3)CS[C@H]12 | = | 0.2 |
| O=C(Cc1ccccc1)N[C@@H]1C(=O)N2C(C(=O)OC(c3ccccc3)c3ccccc3)=C(CO)CS[C@H]12 | = | 200 |
| O=C(Cc1ccccc1)N[C@@H]1C(=O)N2C(C(=O)O)=C(COC(=O)N3CCN(c4cc5c(cc4F)c(=O)c(C(=O)O)cn5C4CC4)CC3)CS[C@H]12 | = | 0.8 |

###

Documented MIC across a set of compounds
- Tested on: Mycolicibacterium smegmatis
- Measurement Description: Antibacterial activity against Mycobacterium smegmatis SG987
- Format: functional

| Smiles Structure | System Under Test | Comparison Sign | MIC, µM |
| --- | --- | --- | --- |
| O=C(Cc1ccccc1)N[C@@H]1C(=O)N2C(C(=O)O)=C(COC(=O)N3CCN(c4cc5c(cc4F)c(=O)c(C(=O)O)cn5C4CC4)CC3)CS[C@H]12 | Mycolicibacterium smegmatis | = | 3.12 |
| O=C(Cc1ccccc1)N[C@@H]1C(=O)N2C(C(=O)O)=C(CN3CCN(c4cc5c(cc4F)c(=O)c(C(=O)O)cn5C4CC4)CC3)CS[C@H]12 | Mycolicibacterium smegmatis | = | 3.12 |
| O=C(O)c1cn(C2CC2)c2cc(N3CCNCC3)c(F)cc2c1=O | Mycolicibacterium smegmatis | = | 0.8 |
| COc1ccc(COC(=O)C2=C(CN3CCN(c4cc5c(cc4F)c(=O)c(C(=O)O)cn5C4CC4)CC3)CS[C@@H]3[C@H](NC(=O)Cc4ccccc4)C(=O)N23)cc1 | Mycolicibacterium smegmatis | = | 12.5 |
| COc1ccc(COC(=O)C2=C(CI)CS[C@@H]3[C@H](NC(=O)Cc4ccccc4)C(=O)N23)cc1 | Mycolicibacterium smegmatis | > | 200 |
| O=C(Cc1ccccc1)N[C@@H]1C(=O)N2C(C(=O)OC(c3ccccc3)c3ccccc3)=C(CO)CS[C@H]12 | Mycolicibacterium smegmatis | = | 200 |
| O=C(Cc1ccccc1)N[C@@H]1C(=O)N2C(C(=O)OC(c3ccccc3)c3ccccc3)=C(COC(=O)N3CCN(c4cc5c(cc4F)c(=O)c(C(=O)O)cn5C4CC4)CC3)CS[C@H]12 | Mycolicibacterium smegmatis | = | 1.56 |
